System name: MMP-2 (Homo sapiens, UniProt P08253)
Construct: purchased Sino Biological 10082-HNAH
Assay remarks: MMP-2 inhibition assay (fluorogenic peptide substrate)
Type: biochemical
Conditions: MMP-2, concentration 1.95 µM
Assay readout: remaining activity (%)
Give the figure only, with no unit attached.

Below, each entry is followed by its recorded remaining activity (%) result.
>>> observed("Cn1c(O)nc2cc(C(=O)NCCOCCOCCNC(=O)Cn3cnc4c(oc5ccccc54)c3=O)cnc21")
96.45
>>> observed("O=C(CCC(=O)NCc1c[nH]nn1)NCCOCCOCCNC(=O)Cn1cnc2c(oc3ccccc32)c1=O")
98.52
>>> observed("Cn1c(O)nc2cc(C(=O)NCCCCCCCCNC(=O)Cn3cnc4c(oc5ccccc54)c3=O)cnc21")
84.32
>>> observed("O=C(Cn1cnc2c(oc3ccccc32)c1=O)NCc1c[nH]nn1")
92.98

Next up:
For the compound shown here, Cn1c(O)nc2cc(C(=O)NCCNC(=O)Cn3cnc4c(oc5ccccc54)c3=O)cnc21 , give the reported remaining activity (%).
93.31

---

System name: MMP-9 (Homo sapiens, UniProt P14780)
Construct: purchased Sino Biological 10327-HNAH
Sequence (P14780 107-707 limits assumed): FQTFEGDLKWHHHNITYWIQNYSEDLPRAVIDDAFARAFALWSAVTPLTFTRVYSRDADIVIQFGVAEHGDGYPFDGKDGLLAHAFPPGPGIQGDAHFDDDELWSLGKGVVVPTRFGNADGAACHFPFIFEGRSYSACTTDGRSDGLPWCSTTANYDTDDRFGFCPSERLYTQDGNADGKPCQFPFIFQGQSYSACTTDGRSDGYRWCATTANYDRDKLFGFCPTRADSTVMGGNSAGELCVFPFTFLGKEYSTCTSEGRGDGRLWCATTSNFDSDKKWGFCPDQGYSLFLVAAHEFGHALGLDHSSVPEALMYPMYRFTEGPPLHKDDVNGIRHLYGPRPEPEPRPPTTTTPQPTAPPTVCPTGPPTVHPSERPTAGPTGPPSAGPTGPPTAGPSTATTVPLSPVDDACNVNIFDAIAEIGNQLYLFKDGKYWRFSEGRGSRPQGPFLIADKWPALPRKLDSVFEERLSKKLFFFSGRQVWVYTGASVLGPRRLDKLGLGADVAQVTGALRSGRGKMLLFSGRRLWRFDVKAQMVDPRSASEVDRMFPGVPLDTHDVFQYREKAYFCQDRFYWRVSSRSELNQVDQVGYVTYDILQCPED
Assay remarks: MMP-9 inhibition assay (fluorogenic peptide substrate)
Format: biochemical
Design: scale not given here
Conditions: MMP-9, concentration 0.39 µM
Assay readout: remaining enzyme activity (% of control)
Keep the answer to the number alone.

Some solved entries appear below for comparison.
>>> observed("O=C(Cn1cnc2c(oc3ccccc32)c1=O)NCCCCCCCCNC(=O)c1cncc(O)c1 [182+828 Linker 4]")
88.39
>>> observed("O=C(CCC(=O)NCc1c[nH]nn1)NCCCCCCCCNC(=O)Cn1cnc2c(oc3ccccc32)c1=O [182+787 Linker 4]")
89.82
>>> observed("O=C(CCC(=O)NCc1c[nH]nn1)NCCOCCOCCNC(=O)Cn1cnc2c(oc3ccccc32)c1=O [182+787 Linker 10]")
94.43

// moving on: another record for remaining enzyme activity (% of control)
What does the data say about its remaining enzyme activity (% of control)? Entry: O=C(Cn1cnc2c(oc3ccccc32)c1=O)NCc1c[nH]nn1 [182+787 Linker 1]
88.12

---

System name: MMP-2 (Homo sapiens)
Construct: purchased Sino Biological 10082-HNAH
Sequence (P08253 110-660): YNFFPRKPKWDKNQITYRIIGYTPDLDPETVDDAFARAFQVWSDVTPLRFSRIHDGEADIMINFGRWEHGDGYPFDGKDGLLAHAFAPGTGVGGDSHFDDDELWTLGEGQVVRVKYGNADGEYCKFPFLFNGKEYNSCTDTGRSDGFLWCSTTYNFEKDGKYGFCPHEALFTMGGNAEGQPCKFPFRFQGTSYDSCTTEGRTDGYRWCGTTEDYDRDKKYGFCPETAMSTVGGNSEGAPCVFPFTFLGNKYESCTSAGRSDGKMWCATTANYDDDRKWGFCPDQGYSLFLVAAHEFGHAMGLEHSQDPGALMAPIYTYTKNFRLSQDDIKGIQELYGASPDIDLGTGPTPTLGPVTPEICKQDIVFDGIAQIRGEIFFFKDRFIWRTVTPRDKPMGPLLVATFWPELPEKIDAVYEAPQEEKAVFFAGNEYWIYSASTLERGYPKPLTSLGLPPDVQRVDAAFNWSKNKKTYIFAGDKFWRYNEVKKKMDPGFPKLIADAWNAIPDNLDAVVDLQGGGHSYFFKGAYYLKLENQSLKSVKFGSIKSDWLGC
Assay remarks: MMP-2 inhibition assay (fluorogenic peptide substrate)
Type: biochemical
Conditions: MMP-2; concentration 7.81 µM
Assay readout: remaining activity (%)
The response must contain the number and no unit.

Worked cases, answers included:
>>> observed("Cc1cc(=O)[nH]c(-n2nc(C)c(CCC(=O)NCCCCCCCCNC(=O)c3cnc4c(c3)nc(O)n4C)c2C)n1")
98.79
>>> observed("Cn1c(O)nc2cc(C(=O)NCCOCCOCCNC(=O)CNC(=O)NC34CC5CC(CC(C5)C3)C4)cnc21")
96.59
>>> observed("Cn1c(O)nc2cc(C(=O)NCC34CC5CC(CC(C5)C3)C4)cnc21")
91.81

Could you share what remaining activity (%) was measured for Cn1c(O)nc2cc(C(=O)NCCCC/C=C/C(=O)CC(=O)NCC34CC5CC(CC(C5)C3)C4)cnc21 , tested on MMP-2 (Homo sapiens)?
101.87

Thanks! And Cc1cc(=O)[nH]c(-n2nc(C)c(CCC(=O)NCCSCC(=O)NCCNC(=O)c3cnc4c(c3)nc(O)n4C)c2C)n1 ?
81.11

// next record Cc1cc(=O)[nH]c(-n2nc(C)c(CCC(=O)NCCNC(=O)CC(=O)C=CCCCCNC(=O)c3cnc4c(c3)nc(O)n4C)c2C)n1
93.51

Cc1cc(=O)[nH]c(-n2nc(C)c(CCC(=O)NCCNC(=O)c3cnc4c(c3)nc(O)n4C)c2C)n1 , same question.
105.49

Entry Cn1c(O)nc2cc(C(=O)NCCCCCCCCNC(=O)CNC(=O)NC34CC5CC(CC(C5)C3)C4)cnc21 please
97.67

Cn1c(O)nc2cc(C(=O)NCCSCC(=O)NCC34CC5CC(CC(C5)C3)C4)cnc21 , same question.
112.01

And for Cc1cc(=O)[nH]c(-n2nc(C)c(CCC(=O)NCCOCCOCCNC(=O)c3cnc4c(c3)nc(O)n4C)c2C)n1 ?
90.16

---

System name: MMP-2 (Homo sapiens)
Construct: purchased Sino Biological 10082-HNAH
Assay remarks: MMP-2 inhibition assay (fluorogenic peptide substrate)
Type: biochemical
Conditions: Figure 5d; fragment combination joined by linker; n.d: not detected; read-out: MMP2 IC50
Property: pIC50; scope: individual compounds
# pIC50: negative log10 of molar concentration; output just the value

The examples below pair each entry with its known result.
>>> observed("O=C(Cn1cnc2c(oc3ccccc32)c1=O)NCCNC(=O)c1cncc(O)c1")
4.11
>>> observed("O=C(CNC(=O)NC12CC3CC(CC(C3)C1)C2)NCCOCCOCCNC(=O)c1cncc(O)c1")
3.53
>>> observed("O=C(CCC(=O)NCc1c[nH]nn1)NCCOCCOCCNC(=O)CNC(=O)NC12CC3CC(CC(C3)C1)C2")
3.24
>>> observed("Cc1cc(=O)[nH]c(-n2nc(C)c(CCC(=O)NCCOCCOCCNC(=O)c3cncc(O)c3)c2C)n1")
3.73
>>> observed("Cn1c(O)nc2cc(C(=O)NCCCCCCCCNC(=O)Cn3cnc4c(oc5ccccc54)c3=O)cnc21")
3.36
>>> observed("Cc1cc(=O)[nH]c(-n2nc(C)c(CCC(=O)NCCNC(=O)CC(=O)/C=C/CCCCNC(=O)c3cnc4c(c3)nc(O)n4C)c2C)n1")
3.68

# next compound below
Return reported pIC50; argument: O=C(CSCCNC(=O)c1cncc(O)c1)NCCNC(=O)Cn1cnc2c(oc3ccccc32)c1=O
4.48

---

System name: MMP-9 (Homo sapiens, UniProt P14780)
Construct: purchased Sino Biological 10327-HNAH
Assay remarks: MMP-9 inhibition assay (fluorogenic peptide substrate)
Format: biochemical
Design: scale not given here
Conditions: MMP-9; concentration 0.49 µM
remaining enzyme activity (% of control) overview
Reply: number alone, nothing else.

So what's the measured remaining enzyme activity (% of control) for this one? Cn1c(O)nc2cc(C(=O)NCCOCCOCCNC(=O)CNC(=O)NC34CC5CC(CC(C5)C3)C4)cnc21
98.00

And then Cc1cc(=O)[nH]c(-n2nc(C)c(CCC(=O)NCCNC(=O)c3cnc4c(c3)nc(O)n4C)c2C)n1 , what is it?
107.84

Similarly, Cn1c(O)nc2cc(C(=O)NCCCCCCCCNC(=O)CNC(=O)NC34CC5CC(CC(C5)C3)C4)cnc21 ?
93.14

For Cn1c(O)nc2cc(C(=O)NCCSCC(=O)NCC34CC5CC(CC(C5)C3)C4)cnc21 then?
100.00

---

System name: MMP-2 (Homo sapiens, UniProt P08253)
Construct: purchased Sino Biological 10082-HNAH
Sequence (P08253 110-660): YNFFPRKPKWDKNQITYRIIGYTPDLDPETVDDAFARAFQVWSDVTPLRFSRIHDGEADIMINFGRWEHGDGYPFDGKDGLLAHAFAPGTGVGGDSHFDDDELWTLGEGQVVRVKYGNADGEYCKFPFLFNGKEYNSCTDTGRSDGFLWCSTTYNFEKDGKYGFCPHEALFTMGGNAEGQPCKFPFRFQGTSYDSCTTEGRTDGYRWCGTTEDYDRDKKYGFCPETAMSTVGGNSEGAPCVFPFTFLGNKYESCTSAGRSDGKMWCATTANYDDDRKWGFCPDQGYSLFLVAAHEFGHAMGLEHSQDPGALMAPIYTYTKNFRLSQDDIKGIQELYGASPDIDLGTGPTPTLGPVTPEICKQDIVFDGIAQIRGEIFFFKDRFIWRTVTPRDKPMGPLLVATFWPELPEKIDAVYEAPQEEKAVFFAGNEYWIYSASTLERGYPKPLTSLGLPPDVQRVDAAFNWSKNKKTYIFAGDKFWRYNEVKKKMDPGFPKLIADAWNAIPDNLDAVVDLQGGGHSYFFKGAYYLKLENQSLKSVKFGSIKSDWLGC
Assay remarks: MMP-2 inhibition assay (fluorogenic peptide substrate)
Format: biochemical
Conditions: MMP-2; concentration 1219.00 µM
Below, each entry is listed alongside its reported remaining activity (%).
Simply state the number, no unit and no words.

Some entries whose results are on file:
>>> observed("Cc1cc(=O)[nH]c(-n2nc(C)c(CCC(=O)NCCOCCOCCNC(=O)c3cncc(O)c3)c2C)n1")
9.64
>>> observed("O=C(C=CCCCCNC(=O)c1cncc(O)c1)CC(=O)NCC12CC3CC(CC(C3)C1)C2")
22.32
>>> observed("Cc1cc(=O)[nH]c(-n2nc(C)c(CCC(=O)NCCNC(=O)CSCCNC(=O)c3cncc(O)c3)c2C)n1")
0.00
>>> observed("Cc1cc(=O)[nH]c(-n2nc(C)c(CCC(=O)NCCCCCCCCNC(=O)CCC(=O)NCc3c[nH]nn3)c2C)n1")
8.77
>>> observed("Cc1cc(=O)[nH]c(-n2nc(C)c(CCC(=O)NCCCCCCCCNC(=O)c3cncc(O)c3)c2C)n1")
12.13

Look up remaining activity (%) with MMP-2 (Homo sapiens, UniProt P08253) for this molecule: Cc1cc(=O)[nH]c(-n2nc(C)c(CCC(=O)NCCSCC(=O)NCc3c[nH]nn3)c2C)n1
2.36

And the next one, O=C(CNC(=O)NC12CC3CC(CC(C3)C1)C2)NCCSCC(=O)NCc1c[nH]nn1 ?
41.09
